- Tested on: Enterococcus faecalis
- MEASUREMENT_NOTES: Binding affinity to Enterococcus faecalis NCTC 775 nitroreductase assessed as fluorescent colonies after 24 hrs by fluorescence staining
Activity calls are given as the source filed them. The calls are words filed in the database; no cut-off is given here.
ATTRIBUTE_MEASURED: Activity

Known results for compounds:
O=[N+]([O-])c1ccccc1-c1nc2ccccc2o1 inactive
O=[N+]([O-])c1ccc(Cl)cc1-c1nc2ccccc2s1 inactive
Cn1c(-c2cc(Cl)ccc2[N+](=O)[O-])nc2ccccc21 inactive
O=[N+]([O-])c1ccc(F)cc1-c1nc2ccccc2s1 inactive

Data request: Give Enterococcus faecalis Activity for O=[N+]([O-])c1ccc(F)cc1-c1nc2ccccc2o1
Data returned: inactive

Data request: Give Enterococcus faecalis Activity for COc1cc(-c2nc3ccccc3o2)c([N+](=O)[O-])cc1OC
Data returned: inactive

Data request: Give Enterococcus faecalis Activity for O=[N+]([O-])c1ccc(Cl)cc1-c1nc2ccccc2o1
Data returned: inactive

Data request: Give Enterococcus faecalis Activity for Cn1c(-c2ccccc2[N+](=O)[O-])nc2ccccc21
Data returned: inactive

Data request: Give Enterococcus faecalis Activity for O=[N+]([O-])c1ccccc1-c1nc2ccccc2s1
Data returned: inactive

Data request: Give Enterococcus faecalis Activity for COc1cc(-c2nc3ccccc3s2)c([N+](=O)[O-])cc1OC
Data returned: inactive

---

- System: Morganella morganii
- MEASUREMENT_NOTES: Binding affinity to Morganella morganii WS 462403 nitroreductase assessed as fluorescent colonies after 24 hrs by fluorescence staining
The source made the active and inactive calls. The rule behind the calls is not given here.
ATTRIBUTE_MEASURED: Activity

O=[N+]([O-])c1ccccc1-c1nc2ccccc2s1 Active
Cn1c(-c2cc(Cl)ccc2[N+](=O)[O-])nc2ccccc21 Active
COc1cc(-c2nc3ccccc3s2)c([N+](=O)[O-])cc1OC Active
O=[N+]([O-])c1ccc(F)cc1-c1nc2ccccc2s1 Active
COc1cc(-c2nc3ccccc3o2)c([N+](=O)[O-])cc1OC Active

Here is another compound to look at.
Data request: Name the reported Activity value associated with the compound O=[N+]([O-])c1ccc(F)cc1-c1nc2ccccc2o1
Data returned: Active

---

- Test system: Pseudomonas aeruginosa
- MEASUREMENT_NOTES: Binding affinity to Pseudomonas aeruginosa NCTC 10662 nitroreductase assessed as fluorescent colonies after 24 hrs by fluorescence staining
Calls of active or inactive are those of the source. The rule behind the calls is not given here.
Returns: one label drawn from active, inactive

Data request: I would be grateful if you could indicate the recorded call for Cn1c(-c2cc(Cl)ccc2[N+](=O)[O-])nc2ccccc21 .
Data returned: active

Data request: I would be grateful if you could indicate the recorded call for COc1cc(-c2nc3ccccc3o2)c([N+](=O)[O-])cc1OC .
Data returned: inactive

---

- Test system: Staphylococcus aureus
- MEASUREMENT_NOTES: Binding affinity to Staphylococcus aureus NCTC 6571 nitroreductase assessed as fluorescent colonies after 24 hrs by fluorescence staining
Activity calls are given as the source filed them. The calls are words filed in the database; no cut-off is given here.
Returns: one label drawn from active, inactive

Previously resolved entries follow.
O=[N+]([O-])c1ccccc1-c1nc2ccccc2o1 active
O=[N+]([O-])c1ccc(Cl)cc1-c1nc2ccccc2s1 active
Cn1c(-c2cc(Cl)ccc2[N+](=O)[O-])nc2ccccc21 active
O=[N+]([O-])c1ccc(Cl)cc1-c1nc2ccccc2o1 active
COc1cc(-c2nc3ccccc3s2)c([N+](=O)[O-])cc1OC active
O=[N+]([O-])c1ccc(F)cc1-c1nc2ccccc2s1 active
O=[N+]([O-])c1ccc(F)cc1-c1nc2ccccc2o1 active
Cn1c(-c2ccccc2[N+](=O)[O-])nc2ccccc21 inactive

Data request: I would be grateful if you could indicate the recorded call for COc1cc(-c2nc3ccccc3o2)c([N+](=O)[O-])cc1OC .
Data returned: active

Data request: I would be grateful if you could indicate the recorded call for O=[N+]([O-])c1ccccc1-c1nc2ccccc2s1 .
Data returned: active
